System: MDA-MB-231
protocol.summary: Alamar blue fluorescence viability (IC50), MDA-MB-231
Type: cell-based
experimental.conditions: MDA-MB-231, ERα negative, 72 hr; read-out: IC50 72 hr
The compounds listed here are annotated with their IC50.
measurement.label: IC50 (µM)

compound	value.measured
O=C1Nc2c(C(F)(F)F)cccc2C1(c1ccc(O)cc1)N1CCC(F)(F)C1 (stereo not drawn)	32
O=C1Nc2c(C(F)(F)F)cccc2C1(c1ccc(O)cc1)N1CCCC(F)(F)C1 (stereo not drawn)	22
O=C1Nc2c(C(F)(F)F)cccc2C1(c1ccc(O)cc1)N1CC(F)(F)C(F)(F)C1 (stereo not drawn) [drawing 36]	14
